Origin of the recorded values: the supplement of paper PMC4166925

Tested on: SpTbr T-box DNA-binding domain (GST fusion);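 note: protein at 200 nM in PBS on universal double-stranded arrays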
Sequence: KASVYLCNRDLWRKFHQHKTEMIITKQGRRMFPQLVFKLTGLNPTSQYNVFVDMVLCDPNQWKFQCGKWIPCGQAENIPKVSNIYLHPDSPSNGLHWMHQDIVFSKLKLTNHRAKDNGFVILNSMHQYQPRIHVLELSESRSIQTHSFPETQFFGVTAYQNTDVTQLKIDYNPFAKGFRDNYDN
EXPERIMENT DESCRIPTION: PBM E-score of 8-mer (E-score (dimensionless, -0.5 to 0.5)); higher = stronger binding preference
EXPERIMENTAL PARAMETERS: the construct has about 5 more residues each side
In all, about 33,000 sequences were measured (“E-score (dimensionless, -0.5 to 0.5)”: median about -0.046, highest 2% from about 0.36 on). This is one part of a sample in which the highest values are shown more often than they occur.
ASSAY ENDPOINT: PBM E-score of 8-mer
Lab note: jot the number down without any unit.

{"SEQUENCE CODE": "CGCGTGAA", "RECORDED RESULT": 0.421}
{"SEQUENCE CODE": "ATCTCTCA", "RECORDED RESULT": 0.171}
{"SEQUENCE CODE": "AGGTTGAT", "RECORDED RESULT": -0.0456}

Query block: If you can, please state the reported PBM E-score of 8-mer value of "CGTGTCAG" .
Result block: 0.257

Query block: Next sequence: "ATATGTGA"
Result block: 0.242

Query block: Further, for "ACGCCTCG" ?
Result block: 0.373

Query block: Can you handle "GGCGTGCA" next?
Result block: 0.0836

Query block: Now try "ACCTCACG" .
Result block: 0.239

Query block: Proceed to "GAGGATGC"
Result block: -0.0317

Query block: "AGTTAGAT" ?
Result block: -0.191

Query block: Then "GCTGTCAC" ?
Result block: 0.326

Query block: Let us now turn to "GCCAGGCC"
Result block: -0.217

Query block: Input "ATACAGGG"
Result block: -0.276

Query block: Note, next up: "GGTCAGAC"
Result block: -0.274

Query block: Try this sequence next: "TCCTCACA"
Result block: 0.349

Query block: Then this sequence: "GGCGTCAA"
Result block: 0.412

Query block: Repeat for the following sequence: "ATGTAGGG"
Result block: -0.355

Query block: What do we get for "CGCGTCAC" ?
Result block: 0.277

Query block: How about "TCTGACAA" ?
Result block: -0.0245

Query block: Subsequent entry: "GATCGCTA"
Result block: 0.136

Query block: Same read-out for "TGCGTTAA" ?
Result block: 0.208

====

Test system: SpTbr T-box DNA-binding domain (GST fusion);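 note: protein at 200 nM in PBS on universal double-stranded arrays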
Sequence: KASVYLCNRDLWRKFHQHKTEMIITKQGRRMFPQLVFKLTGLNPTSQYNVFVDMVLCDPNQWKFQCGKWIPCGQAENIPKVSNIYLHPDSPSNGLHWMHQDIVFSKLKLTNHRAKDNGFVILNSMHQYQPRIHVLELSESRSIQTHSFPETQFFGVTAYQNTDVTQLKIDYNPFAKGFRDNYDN
EXPERIMENT DESCRIPTION: PBM E-score of 8-mer (E-score (dimensionless, -0.5 to 0.5)); higher = stronger binding preference
EXPERIMENTAL PARAMETERS: target sequence: T-box / the construct has about 5 more residues each side
In all, about 33,000 sequences were measured (“E-score (dimensionless, -0.5 to 0.5)”: median about -0.046, highest 2% from about 0.36 on). Many of the other results were omitted from the sample, so the highest values are more common in it than they were.
ASSAY ENDPOINT: PBM E-score of 8-mer
Answer field: number only, no words.

{"SEQUENCE CODE": "CGGTGCGA", "PBM E-score of 8-mer": 0.339}

Query block: # get_value(readout= PBM E-score of 8-mer, system= SpTbr T-box DNA-binding domain (GST fusion)) for "CTACCGAG"
Result block: -0.07

Query block: Here is the next sequence: "GACAGTGC"
Result block: 0.152

Query block: Then what about the sequence "AGTGTTAC" ?
Result block: 0.374

Query block: "CACAACCA" , same question.
Result block: 0.133

Query block: How about this sequence: "AGGTGCCG"
Result block: 0.421

Query block: Same for "CACGTTGC"
Result block: 0.101

Query block: Then "GACACCGC" ?
Result block: 0.244

Query block: // next record "GGGTGCCA"
Result block: 0.374

Query block: Repeat for the following sequence: "ACGTGCCA"
Result block: 0.361

Query block: // query: "GGTGTTGA"
Result block: 0.463

Query block: And then "ATCACACA" , what is it?
Result block: 0.425

Query block: Try this sequence too: "GTTGTTAA"
Result block: 0.339

Query block: Consider next the sequence "TATGTACA" in the same way.
Result block: -0.174

Query block: How about this sequence: "GCCAGCGA"
Result block: 0.164

Query block: What about this sequence? "GTGTGCGA"
Result block: 0.361

Query block: Here is the next sequence: "ATTGCACA"
Result block: 0.121

Query block: Please give the result for "AATGTTAA" too.
Result block: -0.0502

====

# PBM E-score of 8-mer values compiled below
Test system: SpTbr T-box DNA-binding domain (GST fusion);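 note: protein at 200 nM in PBS on universal double-stranded arrays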
Sequence: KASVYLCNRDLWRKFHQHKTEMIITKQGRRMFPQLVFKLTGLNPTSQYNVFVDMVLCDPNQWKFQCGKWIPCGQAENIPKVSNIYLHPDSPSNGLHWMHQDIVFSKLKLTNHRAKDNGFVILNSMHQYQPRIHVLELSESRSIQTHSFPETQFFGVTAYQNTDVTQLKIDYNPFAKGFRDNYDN
EXPERIMENT DESCRIPTION: PBM E-score of 8-mer (E-score (dimensionless, -0.5 to 0.5)); higher = stronger binding preference
EXPERIMENTAL PARAMETERS: target sequence: T-box / the construct has about 5 more residues each side
The full ranking holds about 33,000 sequences; the median of “E-score (dimensionless, -0.5 to 0.5)” is about -0.046, and the highest 2% start at about 0.36. Only a selection was taken, and the highest values are over-represented in it overall.

Use these answered entries as a reference point.
{"SEQUENCE CODE": "GGCACCCA", "ASSAY ENDPOINT": "PBM E-score of 8-mer", "RECORDED RESULT": 0.173}
{"SEQUENCE CODE": "CGCATAGA", "ASSAY ENDPOINT": "PBM E-score of 8-mer", "RECORDED RESULT": -0.0202}
{"SEQUENCE CODE": "ATCACGCG", "ASSAY ENDPOINT": "PBM E-score of 8-mer", "RECORDED RESULT": 0.357}
{"SEQUENCE CODE": "AACACCCT", "ASSAY ENDPOINT": "PBM E-score of 8-mer", "RECORDED RESULT": 0.4}

Query block: Under SpTbr T-box DNA-binding domain (GST fusion): PBM E-score of 8-mer value of "CCCAACAC" ?
Result block: 0.343

Query block: Continue with "CAGGTGTC"
Result block: 0.468

====

The sequences listed here are annotated with their PBM E-score of 8-mer.
Test system: SpTbr T-box DNA-binding domain (GST fusion);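 note: protein at 200 nM in PBS on universal double-stranded arrays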
Sequence: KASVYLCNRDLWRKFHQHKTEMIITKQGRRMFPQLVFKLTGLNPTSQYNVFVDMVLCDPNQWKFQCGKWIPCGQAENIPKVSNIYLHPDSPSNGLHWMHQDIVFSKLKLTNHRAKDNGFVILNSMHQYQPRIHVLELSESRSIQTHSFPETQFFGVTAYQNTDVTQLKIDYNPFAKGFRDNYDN
EXPERIMENT DESCRIPTION: PBM E-score of 8-mer (E-score (dimensionless, -0.5 to 0.5)); Tbr is Tbrain of the sea star Patiria miniata (Pm) or the sea urchin Strongylocentrotus purpuratus (Sp); higher = stronger binding preference
EXPERIMENTAL PARAMETERS: target sequence: T-box / the construct has about 5 more residues each side
The full ranking holds about 33,000 sequences; the median of “E-score (dimensionless, -0.5 to 0.5)” is about -0.046, and the highest 2% start at about 0.36. The sample holds the highest values, similar sequences and a random draw of the others, so the mix is not that of the screen.
# answer = number (no unit)

The cases that follow already have their PBM E-score of 8-mer on record.
{"SEQUENCE CODE": "GGTGCAAC", "PBM E-score of 8-mer": 0.176}
{"SEQUENCE CODE": "CCATGGCG", "PBM E-score of 8-mer": -0.204}
{"SEQUENCE CODE": "AAGCGAGG", "PBM E-score of 8-mer": 0.115}
{"SEQUENCE CODE": "GAACCTTA", "PBM E-score of 8-mer": -0.0824}
{"SEQUENCE CODE": "AAAGAGAG", "PBM E-score of 8-mer": -0.0256}
{"SEQUENCE CODE": "ACTCTCCG", "PBM E-score of 8-mer": -0.0225}
{"SEQUENCE CODE": "AAGTGTTC", "PBM E-score of 8-mer": 0.226}
{"SEQUENCE CODE": "ATATTGGC", "PBM E-score of 8-mer": 0.12}

Query block: Please look up its PBM E-score of 8-mer: "ACAACGAT"
Result block: -0.00065

Query block: Same again, this time with "ATGGTGTC"
Result block: 0.392

Query block: Now consider "CAAGTGTA" .
Result block: 0.249
